target: SARS-COV-2 RBD extracellular domain expressed with a C-terminal mouse IgG2a Fc (SARS-CoV-2); assay: Biacore SPR, mAb captured on anti-hFc, 37 C
Listed here: items and their measured koff.
test_readout: koff

binder="mAb15166 (antibody, V domains shown) VH: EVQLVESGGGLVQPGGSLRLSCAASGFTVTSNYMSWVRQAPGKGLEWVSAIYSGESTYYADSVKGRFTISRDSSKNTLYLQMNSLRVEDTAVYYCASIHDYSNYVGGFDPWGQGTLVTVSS VL: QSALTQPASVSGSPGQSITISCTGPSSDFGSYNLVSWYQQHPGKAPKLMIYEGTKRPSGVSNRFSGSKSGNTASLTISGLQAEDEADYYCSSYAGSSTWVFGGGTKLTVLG" test_readout=koff observed_result="9.8e-05 s⁻¹"
binder="mAb14282 (antibody, V domains shown) VH: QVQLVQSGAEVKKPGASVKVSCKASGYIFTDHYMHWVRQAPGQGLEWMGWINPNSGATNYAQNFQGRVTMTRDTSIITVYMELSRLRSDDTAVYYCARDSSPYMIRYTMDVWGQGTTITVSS VL: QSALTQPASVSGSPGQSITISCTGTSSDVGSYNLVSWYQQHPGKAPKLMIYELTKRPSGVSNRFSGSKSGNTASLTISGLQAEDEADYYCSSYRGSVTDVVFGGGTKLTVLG" test_readout=koff observed_result="0.000546 s⁻¹"
binder="mAb14285 (antibody, V domains shown) VH: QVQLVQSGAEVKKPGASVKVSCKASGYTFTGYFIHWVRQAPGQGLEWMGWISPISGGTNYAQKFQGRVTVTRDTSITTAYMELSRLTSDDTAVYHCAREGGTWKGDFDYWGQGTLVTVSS VL: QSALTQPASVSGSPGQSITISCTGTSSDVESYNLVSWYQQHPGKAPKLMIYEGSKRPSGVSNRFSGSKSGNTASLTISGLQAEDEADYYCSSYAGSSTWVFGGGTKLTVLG" test_readout=koff observed_result="0.00103 s⁻¹"
binder="mAb15162 (antibody, V domains shown) VH: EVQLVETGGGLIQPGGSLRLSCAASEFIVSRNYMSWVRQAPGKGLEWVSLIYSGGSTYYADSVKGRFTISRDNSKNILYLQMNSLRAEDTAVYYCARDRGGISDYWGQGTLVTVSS VL: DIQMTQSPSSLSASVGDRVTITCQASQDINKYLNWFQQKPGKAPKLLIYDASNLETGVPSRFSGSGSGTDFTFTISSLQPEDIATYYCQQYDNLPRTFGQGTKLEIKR" test_readout=koff observed_result="0.000101 s⁻¹"
binder="mAb14286 (antibody, V domains shown) VH: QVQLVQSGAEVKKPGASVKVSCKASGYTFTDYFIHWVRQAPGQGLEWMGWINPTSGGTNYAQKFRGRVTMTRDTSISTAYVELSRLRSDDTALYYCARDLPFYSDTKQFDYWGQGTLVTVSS VL: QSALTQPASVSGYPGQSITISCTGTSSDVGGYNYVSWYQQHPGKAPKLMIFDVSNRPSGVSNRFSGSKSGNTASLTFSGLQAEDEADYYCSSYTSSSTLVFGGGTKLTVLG" test_readout=koff observed_result="0.000528 s⁻¹"
binder="mAb14289 (antibody, V domains shown) VH: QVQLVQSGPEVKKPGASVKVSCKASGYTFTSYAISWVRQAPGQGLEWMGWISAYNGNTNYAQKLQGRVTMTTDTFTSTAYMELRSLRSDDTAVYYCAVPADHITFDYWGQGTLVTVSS VL: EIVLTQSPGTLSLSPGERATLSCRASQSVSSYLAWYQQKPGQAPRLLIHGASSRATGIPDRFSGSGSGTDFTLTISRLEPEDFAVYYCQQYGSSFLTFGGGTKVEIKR" test_readout=koff observed_result="0.000128 s⁻¹"
binder="mAb14283 (antibody, V domains shown) VH: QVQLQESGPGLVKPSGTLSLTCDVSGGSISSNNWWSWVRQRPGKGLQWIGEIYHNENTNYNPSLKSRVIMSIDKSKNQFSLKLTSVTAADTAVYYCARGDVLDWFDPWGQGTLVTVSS VL: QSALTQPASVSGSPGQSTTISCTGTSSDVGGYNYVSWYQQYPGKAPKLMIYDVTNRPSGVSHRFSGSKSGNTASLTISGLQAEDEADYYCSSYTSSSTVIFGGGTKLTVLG" test_readout=koff observed_result="9.59e-05 s⁻¹"
binder="mAb14315 (antibody, V domains shown) VH: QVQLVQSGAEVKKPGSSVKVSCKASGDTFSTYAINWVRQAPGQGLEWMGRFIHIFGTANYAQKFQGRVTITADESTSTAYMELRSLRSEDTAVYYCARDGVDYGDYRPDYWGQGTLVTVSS VL: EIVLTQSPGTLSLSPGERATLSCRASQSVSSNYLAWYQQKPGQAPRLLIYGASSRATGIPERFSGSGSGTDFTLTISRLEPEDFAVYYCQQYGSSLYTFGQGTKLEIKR" test_readout=koff observed_result="7.91e-05 s⁻¹"
binder="mAb15151 (antibody, V domains shown) VH: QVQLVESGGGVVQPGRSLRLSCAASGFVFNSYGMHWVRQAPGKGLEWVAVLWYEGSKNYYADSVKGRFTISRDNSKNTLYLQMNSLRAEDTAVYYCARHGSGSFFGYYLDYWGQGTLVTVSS VL: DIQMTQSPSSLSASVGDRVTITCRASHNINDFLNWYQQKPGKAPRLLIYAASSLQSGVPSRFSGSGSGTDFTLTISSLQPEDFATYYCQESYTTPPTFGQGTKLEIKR" test_readout=koff observed_result="0.0031 s⁻¹"
binder="mAb14281 (antibody, V domains shown) VH: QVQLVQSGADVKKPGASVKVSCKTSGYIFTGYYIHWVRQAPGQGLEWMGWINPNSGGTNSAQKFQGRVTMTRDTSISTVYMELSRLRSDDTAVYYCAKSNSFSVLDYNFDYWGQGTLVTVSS VL: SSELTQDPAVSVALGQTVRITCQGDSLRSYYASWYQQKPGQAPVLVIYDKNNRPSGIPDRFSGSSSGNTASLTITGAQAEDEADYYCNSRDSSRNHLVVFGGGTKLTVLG" test_readout=koff observed_result="0.000365 s⁻¹"
